# assay target: Prostaglandin G/H synthase 1 (Homo sapiens) (UniProt P23219)
# Sequence (P23219 whole entry): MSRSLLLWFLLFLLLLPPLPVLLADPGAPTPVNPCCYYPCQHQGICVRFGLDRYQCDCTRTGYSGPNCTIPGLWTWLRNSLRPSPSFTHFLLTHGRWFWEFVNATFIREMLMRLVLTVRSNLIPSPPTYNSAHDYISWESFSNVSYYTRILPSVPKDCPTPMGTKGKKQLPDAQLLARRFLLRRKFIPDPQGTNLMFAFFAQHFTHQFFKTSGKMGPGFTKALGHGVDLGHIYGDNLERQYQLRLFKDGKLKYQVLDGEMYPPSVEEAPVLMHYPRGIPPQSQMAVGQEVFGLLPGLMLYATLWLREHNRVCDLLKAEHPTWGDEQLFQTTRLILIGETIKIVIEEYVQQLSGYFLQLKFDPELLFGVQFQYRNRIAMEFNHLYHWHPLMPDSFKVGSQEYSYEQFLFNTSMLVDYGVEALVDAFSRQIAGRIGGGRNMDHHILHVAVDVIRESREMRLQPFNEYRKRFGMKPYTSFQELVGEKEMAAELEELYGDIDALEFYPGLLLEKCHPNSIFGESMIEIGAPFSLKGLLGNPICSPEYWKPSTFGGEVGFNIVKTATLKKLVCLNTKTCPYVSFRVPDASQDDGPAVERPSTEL
# test settings: at 100 µM
# Description: Inhibition of COX1 at 100 uM after 15 mins
Give Met when the value for inhibition is at least 40%. Give Not met when it is less.

# molecule, group label
rows = [
    ("CC[C@@]12CC(C(=O)OC)=C3Nc4cc(OC)ccc4[C@@]34CCN(C[C@@H](Cl)[C@@H]1O)[C@@H]24 [ALSTOYUNINE H]", "Not met"),
    ("CC[C@@]12CC(C(=O)OC)=C3Nc4cc(OC)ccc4[C@@]34CCN(C(=O)[C@@H]3O[C@@H]31)[C@@H]24 [ALSTOYUNINE G]", "Not met"),
    ("CO[C@@H]1O[C@@H](O)[C@@H]2C3C[C@H]4c5[nH]c6ccccc6c5C[C@@H]2N4[C@@H](C)[C@H]31 [ALSTOYUNINE A]", "Not met"),
    ("C/C=C1/C[N+]2([O-])[C@H]3CC1C1C(OC(C)=O)[C@@]4(C[C@@H]12)C3=Nc1ccccc14 (stereo partly drawn) [ALSTOYUNINE E]", "Met"),
    ("CC(=O)OC1C2C3C[C@H]4C5=[N+](C)c6ccccc6[C@]51C[C@@H]2[N+]4([O-])[C@@H](C)[C@@H]3C(=O)[O-] (stereo partly drawn)", "Met"),
    ("CO[C@@H]1O[C@@H](O)[C@H]2C3C[C@H]4c5[nH]c6ccccc6c5C[C@@H]([C@@H]31)N4[C@H]2C [ALSTOYUNINE B]", "Not met"),
]

====

# assay target: Polyunsaturated fatty acid 5-lipoxygenase (Homo sapiens) (UniProt P09917)
# Sequence (P09917 whole entry): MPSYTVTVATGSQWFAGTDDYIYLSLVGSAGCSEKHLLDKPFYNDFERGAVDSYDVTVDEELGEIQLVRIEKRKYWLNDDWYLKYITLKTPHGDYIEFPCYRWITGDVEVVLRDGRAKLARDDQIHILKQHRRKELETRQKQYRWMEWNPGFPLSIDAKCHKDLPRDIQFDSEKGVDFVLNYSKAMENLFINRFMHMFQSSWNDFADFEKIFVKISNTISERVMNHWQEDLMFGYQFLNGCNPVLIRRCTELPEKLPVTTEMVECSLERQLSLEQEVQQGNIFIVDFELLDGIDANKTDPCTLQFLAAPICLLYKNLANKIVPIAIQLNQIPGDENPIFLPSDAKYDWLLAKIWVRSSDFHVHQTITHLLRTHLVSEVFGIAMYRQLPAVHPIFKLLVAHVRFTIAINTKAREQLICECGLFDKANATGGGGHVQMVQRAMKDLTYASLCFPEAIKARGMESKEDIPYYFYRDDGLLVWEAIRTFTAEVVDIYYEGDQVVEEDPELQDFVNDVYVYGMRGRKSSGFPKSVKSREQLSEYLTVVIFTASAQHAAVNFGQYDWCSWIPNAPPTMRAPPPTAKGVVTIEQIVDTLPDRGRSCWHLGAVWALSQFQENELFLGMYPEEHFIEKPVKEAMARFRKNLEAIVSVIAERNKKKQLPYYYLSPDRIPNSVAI
# method description: Inhibition of 5-LOX at 100 uM after 5 mins
Give TRUE when the value for inhibition is at least 40%. Give FALSE when it is less.

# compound, assay target, group label
measured = [
    ("CO[C@@H]1O[C@@H](O)[C@@H]2C3C[C@H]4c5[nH]c6ccccc6c5C[C@@H]2N4[C@@H](C)[C@H]31", "Polyunsaturated fatty acid 5-lipoxygenase (Homo sapiens) (UniProt P09917)", "FALSE"),
    ("CO[C@@H]1O[C@@H](O)[C@H]2C3C[C@H]4c5[nH]c6ccccc6c5C[C@@H]([C@@H]31)N4[C@H]2C", "Polyunsaturated fatty acid 5-lipoxygenase (Homo sapiens) (UniProt P09917)", "FALSE"),
    ("CC(=O)OC1C2C3C[C@H]4C5=[N+](C)c6ccccc6[C@]51C[C@@H]2[N+]4([O-])[C@@H](C)[C@@H]3C(=O)[O-] (stereo partly drawn)", "Polyunsaturated fatty acid 5-lipoxygenase (Homo sapiens) (UniProt P09917)", "FALSE"),
    ("COC(C)[C@H]1C2C[C@H]3C4=Nc5ccccc5[C@]45C[C@@H](C2C5OC(C)=O)N3[C@@H]1O (stereo partly drawn)", "Polyunsaturated fatty acid 5-lipoxygenase (Homo sapiens) (UniProt P09917)", "TRUE"),
    ("CC[C@@]12CC(C(=O)OC)=C3Nc4cc(OC)ccc4[C@@]34CCN(C(=O)[C@@H]3O[C@@H]31)[C@@H]24", "Polyunsaturated fatty acid 5-lipoxygenase (Homo sapiens) (UniProt P09917)", "FALSE"),
    ("CC(=O)OC1C2C3C[C@H]4C5=[N+]([O-])c6ccccc6[C@]51C[C@@H]2[N+]4([O-])[C@@H](C)[C@@H]3C(=O)O (stereo partly drawn)", "Polyunsaturated fatty acid 5-lipoxygenase (Homo sapiens) (UniProt P09917)", "FALSE"),
    ("CC[C@@]12CC(C(=O)OC)=C3Nc4cc(OC)ccc4[C@@]34CCN(C[C@@H](Cl)[C@@H]1O)[C@@H]24", "Polyunsaturated fatty acid 5-lipoxygenase (Homo sapiens) (UniProt P09917)", "FALSE"),
    ("C/C=C1/C[N+]2([O-])[C@H]3CC1C1C(OC(C)=O)[C@@]4(C[C@@H]12)C3=Nc1ccccc14 (stereo partly drawn)", "Polyunsaturated fatty acid 5-lipoxygenase (Homo sapiens) (UniProt P09917)", "TRUE"),
]
